Sourced from patent US20240376096A1

System: Jurkat cells
Assay: Cell proliferation quantified by CellTiter-Glo
Type: cell-based
Reported conditions: Homo sapiens, 72 h, dose curve, 3 d, read-out: anti-proliferative activity
pIC50: −log10 of the molar value.

| Compound | pIC50 |
| --- | --- |
| CC(=O)c1c(C)c2cnc(Nc3ccc(N4CCN(CCOc5ccc(CN6CCC(c7ccc8c(c7)CN(C7CCC(=O)NC7=O)C8=O)CC6)cc5)CC4)cn3)nc2n(C2CCCC2)c1=O (centres unmarked) [Ia-8] | 6.78 |
| CC(=O)c1c(C)c2cnc(Nc3ccc(N4CCN(CCOc5ccc(CN6CCC(c7ccc8c(c7)CN(C7CCC(=O)N(C)C7=O)C8=O)CC6)cc5)CC4)cn3)nc2n(C2CCCC2)c1=O (centres unmarked) [compound 17] | 6.61 |
